# TESTED_ON: mu opiate receptor (MOR) (Rattus norvegicus, UniProt P33535)
# Construct: from tissue; host or cells: striatum (membrane preparation)
# Sequence (P33535 whole entry): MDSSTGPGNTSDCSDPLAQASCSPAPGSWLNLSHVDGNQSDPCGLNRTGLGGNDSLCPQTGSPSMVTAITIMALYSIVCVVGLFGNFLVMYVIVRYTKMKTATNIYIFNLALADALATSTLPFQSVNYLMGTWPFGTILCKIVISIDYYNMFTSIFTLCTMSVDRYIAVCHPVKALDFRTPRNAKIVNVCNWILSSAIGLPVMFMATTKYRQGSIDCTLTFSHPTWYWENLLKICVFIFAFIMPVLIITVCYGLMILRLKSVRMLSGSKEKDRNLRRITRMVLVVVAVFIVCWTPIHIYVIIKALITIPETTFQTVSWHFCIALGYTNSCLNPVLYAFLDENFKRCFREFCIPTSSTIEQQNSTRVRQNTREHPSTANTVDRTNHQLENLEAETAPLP
# Format: biochemical
Assign Fulfilled to entries whose % DAMGO + BFNA meets or exceeds 200%; assign Not fulfilled to the rest.

Form field: % DAMGO + BFNA at least 200%? Entry: CC1CCC(C(C)C)C(OCC(O)CN2CCCCCCC2)C1 (stereo not drawn) [Compound A0014]
Fulfilled

Form field: % DAMGO + BFNA at least 200%? Entry: CC1CCC(C(C)C)C(OCC(O)CN2CCN(CCCN3CCOCC3)CC2)C1 (stereo not drawn) [Compound A0026]
Fulfilled

Form field: % DAMGO + BFNA at least 200%? Entry: CN1CCC2(CC1)NC(=O)CN2Cc1ccccc1 [Compound C0104M]
Fulfilled

Form field: % DAMGO + BFNA at least 200%? Entry: COc1ccc(S(=O)(=O)N2CCSC23CCNCC3)cc1 [S-C0027]
Not fulfilled

###

Entries and their measured Concentration of FLNA-Binding Compound as Agonist 0.1 μM follow.
# TESTED_ON: mu opiate receptor (MOR) (Rattus norvegicus)
# Construct: from tissue; host or cells: striatum (membrane preparation)
# Assay type: biochemical
Give the number; % is assumed, so skip it.

Observe how each entry below is paired with its result.
                                   compound                                 tested_on  measurement
0  CC1CCC(C(C)C)C(OCC(O)CN2CCC(=O)C(C)C2)C1 (stereo not shown)  mu opiate receptor (MOR) (Rattus norvegicus)        115.6
1  NS(=O)(=O)c1ccc(S(=O)(=O)N2CCC3(CC2)OCCN3S(=O)(=O)c2ccc(S(N)(=O)=O)cc2)cc1  mu opiate receptor (MOR) (Rattus norvegicus)        103.6
2  C[C@@H](NC(=O)[C@@H](N)Cc1ccc(O)cc1)C(=O)NCC(=O)N(C)[C@@H](Cc1ccccc1)C(=O)NCCO [DAMGO, reference compound]  mu opiate receptor (MOR) (Rattus norvegicus)        168.5

Lab note: OC(COc1ccc(Br)c(F)c1)CN1CCSCC1 (stereo not shown) gave Concentration of FLNA-Binding Compound as Agonist 0.1 μM of 99.2

###

# TESTED_ON: mu opiate receptor (MOR) (Rattus norvegicus)
# Construct: from tissue; host or cells: striatum (membrane preparation)
# Type: biochemical
VALUE_KIND: % DAMGO (0.1 μM)
Number first, unit second.

Observe how each entry below is paired with its result.
>>> df
                                   compound        value_kind  measurement
0  O=C1CN(Cc2ccccc2)C2(CCN(S(=O)(=O)c3cc(Cl)c(O)c(Cl)c3)CC2)N1 [Compound C0139M]  % DAMGO (0.1 μM)       106.2%
1  COCOc1ccc(CCC(=O)CC2c3c(cc4c(c3OC)OCO4)CC[N+]2(C)C)cc1 (stereo not shown)  % DAMGO (0.1 μM)        93.2%
2  NS(=O)(=O)c1ccc(S(=O)(=O)N2CCC3(CC2)OCCN3S(=O)(=O)c2ccc(S(N)(=O)=O)cc2)cc1  % DAMGO (0.1 μM)        61.3%
3  COc1ccc(OCC(O)Cn2ccc3ccccc32)cc1 (stereo not shown)  % DAMGO (0.1 μM)       170.5%
4  CC1CCC(C(C)C)C(OCC(O)CN2CCCC2)C1 (stereo not shown)  % DAMGO (0.1 μM)        63.1%

Lab note: COc1ccc(C(=O)CC2c3c(cc4c(c3OC)OCO4)CC[N+]2(C)C)cc1OC (stereo not shown) gave % DAMGO (0.1 μM) of 88.8%

Lab note: COc1ccc(S(=O)(=O)N2CCC3(CC2)OCCN3S(=O)(=O)c2ccc(C(C)=O)cc2)cc1 gave % DAMGO (0.1 μM) of 144.2%

Lab note: CC1CN(CC(O)COc2ccccc2C(C)C)CC(C)O1 (stereo not shown) gave % DAMGO (0.1 μM) of 98.4%
